List of TGI values.
# Tested on: HCT-15 colon
# method_summary: NCI tumour cell line growth inhibition, 48 h
Response body: numeric value in µM, unit text excluded.

Observe how each entry below is paired with its result.
CCc1oc2ccccc2c1C(=O)c1cc(I)c(O)c(I)c1; 14.1
CC(=O)Nc1ccc2[nH]c(C(=O)N3CC(CCl)c4c3cc(N)c3ccccc43)cc2c1 (stereo unspecified); 2.16
N#C/C(=C\c1cc2ccccc2c2ccccc12)c1ccccc1; 39.4
Cc1ccc2c(c1)C1(C)OC(C=CC1=O)O2 (stereo unspecified); 0.772

Attention now turns to another entry.
Noted for CC(C)CCCC(=O)CCCCCCC(=O)CCN(O)C(=O)C(N)CO (stereo unspecified) : its TGI reads 42.6

---

List of GI50 values.
# Tested on: SNB-75 CNS
# method_summary: NCI tumour cell line growth inhibition, 48 h

Observe how each entry below is paired with its result.
Cn1c2ccccc2c2c3[nH]c(=O)[nH]c(=O)c3c3c4ccccc4n(C)c3c21; 1.49 µM
NCCCn1c2c(c3ccc([N+](=O)[O-])cc3c1=O)C(=O)c1cc(Br)ccc1-2; 0.00281 µM
COc1ccc(-n2cc(-c3cc(OC)c(OC)c(OC)c3)[nH]c2=O)cc1Cl; 6.69 µM

Attention now turns to another entry.
Noted for CCCCCN(CCCCC)CC(O)c1ccc(Cl)c2ccccc12 (configuration not stated) : its GI50 reads 11.7 µM

---

# System: NCI-H522 lung
# method_summary: NCI tumour cell line growth inhibition, 48 h
Use TGI to assign classes; range list: low = under 4 µM, medium = from 4 µM up to 30 µM, high = 30 µM and over

Sample answers from the record:
COc1cc(OC)cc(-c2nc3cc(F)ccc3s2)c1; high
COc1ccc(/C=C\c2cc(OC)c(OC)c(OC)c2)cc1OC(=O)NCCN(C)C; low
CC1(C)N=C(N)N=C(N)N1c1ccc(OCc2ccc(S(=O)(=O)F)c(Cl)c2)c(Cl)c1; high
CCCCCN(CCCCC)CC(O)c1ccc(Cl)c2ccccc12 (centres undefined); high
Cc1ccc(/C=C2\CCC/C(=C\c3ccc(O)c(CN4CCCCC4)c3)C2=O)cc1; medium

In plain terms, what class is `CCOC(=O)C(Cc1cn(S(=O)(=O)c2ccccc2)c2ccccc12)(NC(C)=O)C(=O)OCC` ?
high

In plain terms, what class is `CS(=O)(=O)c1cc(=O)c2ccccc2s1` ?
low

In plain terms, what class is `Cc1[nH]n(C2=NCCN2)c(=O)c1Cc1ccccc1` ?
high

---

# Test system: OVCAR-4 ovarian
# method_summary: NCI tumour cell line growth inhibition, 48 h
List of GI50 values.

CCN(CC)CCCC(C)Nc1cnc(C(=O)Nc2cccc3ccc(OC)nc23)cn1 (configuration not stated); 1.98 µM
N.N.O=C([O-])P(=O)([O-])[O-].[Na+].[Pt+4]; > 100 µM
COc1cc2c3c(n(CCCCOC(=O)C(Cl)(Cl)Cl)c(=O)c2cc1OC)-c1cc2c(cc1C3=O)OCO2; > 100 µM
O=S1(=O)N(CCNc2nccc(-c3c(-c4cccc(O)c4)nc4sccn34)n2)CCN1Cc1ccccc1; 13.6 µM
COc1ccc(OC)c(C(=O)c2oc3ccc(Br)cc3c2N)c1; 3.61 µM
Cc1ccc2[nH]c(C(=O)NN3C(=O)C(C)SC34CCCC(C)C4)c(-c3ccccc3)c2c1 (configuration not stated); 50 µM

Noted for C/C=C1/C(=C/c2[nH]c(/C=c3\[nH]/c(=C/C4=NC(=O)C(CC)=C4C)c(C)c3CCC(=O)O)c(CCC(=O)O)c2C)NC(=O)C1C (configuration not stated) : its GI50 reads > 150 µg/mL

---

# Test system: CCRF-CEM leukemia
# method_summary: NCI tumour cell line growth inhibition, 48 h
measurement_kind: GI50

Noted for Cc1ccc2[nH]c(C(=O)NN3C(=O)C(C)SC34CCCC(C)C4)c(-c3ccccc3)c2c1 (configuration not stated) : its GI50 reads 74100 nM

Noted for COc1cc(/C=C2\CCCC3=C2NC(C)=NC3c2cc(OC)c(OC)c(OC)c2)cc(OC)c1OC (configuration not stated) : its GI50 reads 838 nM

Noted for `O=S1(=O)N(CCNc2nccc(-c3c(-c4cccc(O)c4)nc4sccn34)n2)CCN1Cc1ccccc1` : its GI50 reads 2260 nM

Noted for `CCOC(=O)c1c(C)nc2c(c1N)/C(=C/c1ccc(OC)cc1)C(=O)N2Cc1ccc(F)cc1` : its GI50 reads 109 nM

Noted for COc1ccc(C2SCC(=O)N2NC(=O)Nc2c(C)nc3ccccn23)cc1 (configuration not stated) : its GI50 reads > 100000 nM

Noted for `CC[C@H](C)[C@H]1O[C@]2(C=C[C@@H]1C)C[C@@H]1C[C@@H](C/C=C(\C)[C@@H](O[C@H]3C[C@H](OC)[C@@H](O[C@H]4C[C@H](OC)[C@@H](NC)[C@H](C)O4)[C@H](C)O3)[C@@H](C)/C=C/C=C3\CO[C@@H]4[C@H](O)C(C)=C[C@@H](C(=O)O1)[C@]34O)O2` : its GI50 reads 1870 nM

Noted for `COc1cc(NS(=O)(=O)c2ccc(-c3cnc(C4CC4)o3)cc2)ccc1F` : its GI50 reads 326 nM

---

# Tested on: UACC-257 melanoma
# method_summary: NCI tumour cell line growth inhibition, 48 h
measurement_kind: TGI

Observe how each entry below is paired with its result.
C=CCc1cc(-c2cc(CC=C)c(O)c(CNCCCl)c2)cc(CNCCCl)c1O; 32.4 µM
COC(=O)C1=C(C(=O)OC)c2cc(OC)ccc2C(C(=S)N(C)C)S1 (centres undefined); > 100 µM
O=C(Cc1ccccc1)N/N=C/c1ccccc1O; 58 µM
CNc1nc2n(CCO)c(-c3ccccc3)c(-c3ccccc3)nc-2c(=O)n1; > 50 µM
COc1cc2c(c(OC)c1OC)-c1c(cc3c(c1OC)OCO3)C1OC2C(C)C1C (centres undefined) (tested in a mixture with another compound); > 100 µM

Attention now turns to another entry.
Noted for `Cc1ccc2c3c(c(=O)[nH]c2c1)C1(C(C#N)=C(N)O3)c2cc(Br)ccc2-c2ccc(Br)cc21` : its TGI reads 5.24 µM

---

List of TGI values.
# System: ACHN renal
# method_summary: NCI tumour cell line growth inhibition, 48 h

Observe how each entry below is paired with its result.
CCOC(=O)C1(C(=O)OCC)C[C@H](C)[C@](C)(O)C1; > 100 µM
O=C(O)[C@@H]1CSCN1C(=O)[C@@H]1CCC(=S)N1; > 100 µM

Attention now turns to another entry.
Summary: `C=CCc1cc(-c2cc(CC=C)c(O)c(CNCCCl)c2)cc(CNCCCl)c1O` , ACHN renal, TGI = 46.2 µM

---

# Tested on: OVCAR-4 ovarian
# method_summary: NCI tumour cell line growth inhibition, 48 h
measurement_kind: TGI

NCCCCC(N)C(=O)NCCNc1ccc(NCCNC(=O)C(N)CCCCN)c2c1C(=O)c1ccccc1C2=O (stereo not drawn); > 100 µM
COc1cc2c(cc1OC)CCc1cc(OC)c(OC)cc1CC2; > 100 µM
Cc1ccc2c(c1)C1(C)OC(C=CC1=O)O2 (stereo not drawn); 2.29 µM
COC1(OC)CC(CO)(CNc2nc(N)nc(Cl)c2/C=N\O)C1; > 100 µM
O=C1C=CC=C/C1=C1\N=C(c2ccccc2OCC(=O)c2ccc(Br)cc2)SS1; > 100 µM

Summary: COc1cc(/C=C2\CCCC3=C2NC(C)=NC3c2cc(OC)c(OC)c(OC)c2)cc(OC)c1OC (stereo not drawn) , OVCAR-4 ovarian, TGI = > 100 µM

Summary: `N#Cc1c(Cl)c2cc([N+](=O)[O-])ccc2n2c1nc1ccccc12` , OVCAR-4 ovarian, TGI = 3.58 µM

Summary: `Clc1ccc(-c2c(C3=NCCCN3)nnn2-c2ccc(Cl)cc2)cc1` , OVCAR-4 ovarian, TGI = > 100 µM

---

# System: NCI/ADR-RES ovarian
# method_summary: NCI tumour cell line growth inhibition, 48 h; in the data active = GI50 below about 0.43 µM; inactive = the rest
Pick one and only one: 1 = active, -1 = inactive

Sample answers from the record:
O=C(/C(=C/c1cccc([N+](=O)[O-])c1)c1ccccc1)c1ccccc1; -1
O=S1(=O)N(CCNc2nccc(-c3c(-c4cccc(O)c4)nc4sccn34)n2)CCN1Cc1ccccc1; -1
O=C1/C(=C/c2ccc(O)cc2)CSc2ccc(Cl)cc21; -1

Just curious, what result did `COc1cc2c3c(n(C)c(=O)c2cc1OC)-c1cc2c(cc1/C3=C\CNCCCN)OCO2` get here?
-1

Just curious, what result did `Nc1nc(-c2cccc(Cl)c2)c(-c2ccc3ncccc3n2)s1` get here?
-1

Just curious, what result did `CCc1oc2ccccc2c1C(=O)c1cc(I)c(O)c(I)c1` get here?
-1

Just curious, what result did `CCC(=O)c1c(C(F)(F)F)n([O-])c2ccc(C)cc2[n+]1=O` get here?
-1
